The reported numbers originate from ChEMBL document CHEMBL4428112.

- Test system: MOLT-4
- TEST_PROTOCOL: Cytotoxicity against human MOLT4 cells assessed as growth inhibition after 72 hrs by MTT assay
- Assay type: functional, cell-based
- CONDITIONS: MOLT-4, 72 h
ENDPOINT_NAME: IC50 (µM)
A number alone suffices; assume µM.

query: Record request: IC50 value, item "C=C(CC[C@@H](C)[C@H]1CC[C@H]2[C@@H]3CC=C4C[C@@H](O)CC[C@]4(O)[C@H]3CC[C@]12C)C(C)C"
result: 18.3

----------
- Test system: U-937
- TEST_PROTOCOL: Cytotoxicity against human U937 cells assessed as growth inhibition after 72 hrs by MTT assay
- Assay type: functional, cell-based
- CONDITIONS: U-937, 72 h
ENDPOINT_NAME: IC50 (nM)
A number alone suffices; assume nM.

query: Record request: IC50 value, item "COc1cccc2c1C(=O)c1c(O)c3c(c(O)c1C2=O)C[C@@](O)(C(=O)CO)C[C@@H]3O[C@H]1C[C@H](N)[C@H](O)[C@H](C)O1"
result: 420
